These data points were gathered from patent US20200055939A1.

- Tested on: T1, huMICA*008 alpha 3-his (human)
- T1 construct: whole construct entry: GS, alpha 3 domain (Thr204-Ser297), GNS, His8; also the construct of the FPOP experiment; also called MICA008.His; MICA*008 alpha3 construct
- T1 chain: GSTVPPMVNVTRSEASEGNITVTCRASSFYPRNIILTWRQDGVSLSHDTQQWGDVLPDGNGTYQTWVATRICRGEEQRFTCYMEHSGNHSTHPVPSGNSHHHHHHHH
- Assay protocol: SPR, Biacore 8K, antibody on Protein A chip

[
  {
    "Binder": "1D5v19 (antibody, IgG1, V domains shown, humanized variant of 1D5) VH: EVQLVQSGAEVKKPGASVKVSCKASGYAFTSQNIYWVRQAPGQGLEWIGYIEPYNVVPMYNPKFKGRATLTVDKSTSTAYLELSSLRSEDTAVYYCARSGSSNFDYWGQGTLVTVSS VL: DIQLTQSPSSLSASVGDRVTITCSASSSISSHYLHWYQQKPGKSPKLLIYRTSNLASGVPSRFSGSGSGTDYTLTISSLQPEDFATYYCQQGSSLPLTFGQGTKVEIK",
    "Unit of measurement": "nM",
    "Kd": 0.83
  },
  {
    "Binder": "1D5v7 (antibody, IgG1, V domains shown, humanized variant of 1D5) VH: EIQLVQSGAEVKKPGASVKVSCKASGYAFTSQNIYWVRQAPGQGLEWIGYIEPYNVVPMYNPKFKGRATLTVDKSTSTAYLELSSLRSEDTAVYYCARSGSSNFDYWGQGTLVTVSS VL: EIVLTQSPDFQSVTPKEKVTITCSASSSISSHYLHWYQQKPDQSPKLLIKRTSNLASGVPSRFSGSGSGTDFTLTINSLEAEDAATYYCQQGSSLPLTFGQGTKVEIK",
    "Unit of measurement": "nM",
    "Kd": 1.7
  },
  {
    "Binder": "1D5v14 (antibody, IgG1, V domains shown, humanized variant of 1D5; also called 1D5v14 second data point) VH: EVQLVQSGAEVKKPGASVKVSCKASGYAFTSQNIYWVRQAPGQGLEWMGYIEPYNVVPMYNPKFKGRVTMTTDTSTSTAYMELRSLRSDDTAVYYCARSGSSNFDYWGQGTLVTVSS VL: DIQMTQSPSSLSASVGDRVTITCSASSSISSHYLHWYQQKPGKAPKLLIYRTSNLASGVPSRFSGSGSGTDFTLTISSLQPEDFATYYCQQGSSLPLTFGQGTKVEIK",
    "Unit of measurement": "nM",
    "Kd": 1.16
  }
]
